protocol: Solubility in individual solvents
Type: physicochemical
condition-summary: Absolute ethanol, organic solvent or mixture, Absolute ethanol; varies depending upon the derivative; read-out: SOLUBILITY
readout-name: solubility

| compound-structure | readout-name | result |
| --- | --- | --- |
| C=C(C)[C@@H]1CC[C@]2(C(=O)O)CC[C@]3(C)[C@H](CC[C@@H]4[C@@]5(C)CC[C@H](O)C(C)(C)[C@@H]5CC[C@]43C)[C@@H]12 | solubility | 3000 to 10000 µg/mL |

---

protocol: Solubility in individual solvents
Assay type: physicochemical
condition-summary: N,N-dimethylacetamide (DMA), organic solvent or mixture, N,N Dimethylacetamide (DMA); read-out: SOLUBILITY
readout-name: solubility

| compound-structure | result |
| --- | --- |
| C=C(C)[C@@H]1CC[C@]2(C(=O)O)CC[C@]3(C)[C@H](CC[C@@H]4[C@@]5(C)CC[C@H](O)C(C)(C)[C@@H]5CC[C@]43C)[C@@H]12 | ≤ 250 mg/mL |

---

protocol: Solubility in individual solvents
Format: physicochemical
condition-summary: Dimethylsulfoxide (DMSO), organic solvent or mixture, Dimethylsulfoxide (DMSO); read-out: SOLUBILITY
readout-name: solubility

| compound-structure | readout-name | result |
| --- | --- | --- |
| C=C(C)[C@@H]1CC[C@]2(C(=O)O)CC[C@]3(C)[C@H](CC[C@@H]4[C@@]5(C)CC[C@H](O)C(C)(C)[C@@H]5CC[C@]43C)[C@@H]12 | solubility | ≤ 100 mg/mL |

---

protocol: Amount of drug dissolved in solvent/co-solvent/solubilizer compositions
Type: physicochemical
condition-summary: organic solvent or mixture; Examples 10 and 11: DMA 10-20% v/v, Propylene glycol 10-20% v/v, Absolute ethanol 30-35% v/v, Tween 80 35-40% w/v; read-out: concentration range soluble in the system

| compound | solubility |
| --- | --- |
| C=C(C)[C@@H]1CC[C@]2(C(=O)O)CC[C@]3(C)[C@H](CC[C@@H]4[C@@]5(C)CC[C@H](O)C(C)(C)[C@@H]5CC[C@]43C)[C@@H]12 [betulinic acid] | 2000 to 15000 µg/mL |
